Tested on: [Candida] auris
Experiment: Antifungal activity against Candida auris ATCC 6258 assessed as growth inhibition
Type: functional, organism-based
Conditions: Candidozyma auris
IC50 less than 2 µg/mL is y; IC50 greater than or equal to 2 µg/mL is n.

compound	assigned-category
C[C@@H](c1ncncc1F)[C@](O)(Cn1cncn1)c1ccc(F)cc1F [VORICONAZOLE]	y
NC1CCCc2ccc(C3=NSC(c4cc(Cl)c(F)c(Cl)c4)(C(F)(F)F)C3)cc21 (configuration not stated)	n
C[C@@H]1[C@H](O)[C@@H](C)/C=C/C=C/C=C/C=C/C=C/C=C/C=C/[C@H](O[C@@H]2O[C@H](C)[C@@H](O)[C@H](N)[C@@H]2O)C[C@@H]2O[C@](O)(C[C@@H](O)C[C@@H](O)[C@H](O)CC[C@@H](O)C[C@@H](O)CC(=O)O[C@H]1C)C[C@H](O)[C@H]2C(=O)O [AMPHOTERICIN B]	y
Fc1ccc2[nH]cc(-c3ccsc3Br)c2c1	n

Given Cc1cc(Nc2ccccc2C)n(-c2nc(=O)cc(C)[nH]2)n1 , is recorded IC50 strictly lower than 2 µg/mL?
y

Given CCCCCn1nc(-c2ccc(Cl)cc2)cnc1=O , is recorded IC50 strictly lower than 2 µg/mL?
y

Data origin: ChEMBL document CHEMBL5223186
